// data source = patent US9725445B2

Biological target: UniProtKB P23458
Sequence (P23458 875-1153): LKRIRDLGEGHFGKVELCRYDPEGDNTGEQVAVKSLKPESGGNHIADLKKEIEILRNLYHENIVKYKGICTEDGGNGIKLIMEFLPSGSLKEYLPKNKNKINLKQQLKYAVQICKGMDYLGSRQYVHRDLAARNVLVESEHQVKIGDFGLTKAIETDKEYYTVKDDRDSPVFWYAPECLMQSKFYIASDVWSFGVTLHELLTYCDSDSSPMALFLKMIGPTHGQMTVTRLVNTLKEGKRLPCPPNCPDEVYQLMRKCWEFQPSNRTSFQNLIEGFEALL
Assay: Jak biochemical HTRF assay, JAK1
Settings: HTRF biochemical assay, recombinant GST-tagged catalytic domain; read-out: JAK1 IC50
Simple rule here: IC50 less than 0.5 nM is yes, otherwise no.

Hi there! Is IC50 for CC1c2cc(Nc3nn([C@H]4CCCC[C@@H]4C#N)c4cc[nH]c(=O)c34)ccc2S(=O)(=O)N1C (single isomer, unassigned) [Example 3-127] below 0.5 nM, do you know?
yes

Hi there! Is IC50 for CC(c1ccc(Nc2nn([C@H]3CCCC[C@@H]3C#N)c3cc[nH]c(=O)c23)cc1)n1nccn1 (single isomer, unassigned) [Example 15-22] below 0.5 nM, do you know?
yes

Hi there! Is IC50 for N#C[C@H]1CCCC[C@@H]1n1nc(Nc2ccc(-c3ncno3)cc2)c2c(=O)[nH]ccc21 [Example 15-6] below 0.5 nM, do you know?
no

Hi there! Is IC50 for N#C[C@H]1CCCC[C@@H]1n1nc(Nc2cccc([C@H](N)C(F)(F)F)c2)c2c(=O)[nH]ccc21 [Example 7-1] below 0.5 nM, do you know?
no

Hi there! Is IC50 for N#C[C@H]1CCCC[C@@H]1n1nc(Nc2ccc3c(c2)CN(C2CCSCC2)C3=O)c2c(=O)[nH]ccc21 [Example 15-60] below 0.5 nM, do you know?
yes

Hi there! Is IC50 for N#C[C@H]1CCCC[C@@H]1n1nc(Nc2ccc(CNC(=O)c3ncccn3)cc2)c2c(=O)[nH]ccc21 [Example 3-30] below 0.5 nM, do you know?
yes

Hi there! Is IC50 for CC(C)[C@H](C)N1Cc2ccc(Nc3nn([C@H]4CCCC[C@@H]4C#N)c4cc[nH]c(=O)c34)cc2C1 [Example 3-148] below 0.5 nM, do you know?
yes
